Consider the following molecules; for each one, report its pIC50.
Molecular target: C-C chemokine receptor type 2 (Homo sapiens)
Sequence (P41597 whole entry): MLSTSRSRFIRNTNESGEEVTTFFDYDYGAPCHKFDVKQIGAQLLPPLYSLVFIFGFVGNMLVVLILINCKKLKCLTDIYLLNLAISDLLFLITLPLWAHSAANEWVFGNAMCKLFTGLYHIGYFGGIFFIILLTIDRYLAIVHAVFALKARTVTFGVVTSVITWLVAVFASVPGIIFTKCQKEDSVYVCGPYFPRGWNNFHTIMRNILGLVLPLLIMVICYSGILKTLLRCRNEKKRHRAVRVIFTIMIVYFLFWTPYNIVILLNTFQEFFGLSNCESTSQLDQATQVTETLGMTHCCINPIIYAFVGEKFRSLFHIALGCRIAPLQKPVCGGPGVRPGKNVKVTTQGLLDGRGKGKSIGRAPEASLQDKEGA
Experiment: Displacement of [125I]-MCP1 from CCR2 in human THP1 cells after 2 hrs by microplate scintillation and luminescence counting
One number for each entry, as −log10 of the molar value.

input: # query: pIC50 | item "COc1ccc([C@H]2CC[C@H](N3CC(NC(=O)CNC(=O)c4cccc(C(F)(F)F)c4)C3)CC2)cn1" | system: C-C chemokine receptor type 2 (Homo sapiens)
output: 8.15

input: And for "O=C(CNC(=O)c1cccc(C(F)(F)F)c1)NC1CN([C@H]2CC[C@](O)(c3cccnc3)CC2)C1" ?
output: 6.72

input: // next record "N#Cc1cccc([C@]2(O)CC[C@@H](N3CC(NC(=O)CNC(=O)c4cccc(C(F)(F)F)c4)C3)CC2)c1"
output: 6.39

Hi there! I need pIC50 for each item below, if you can.
1. COc1ccc([C@]2(O)CC[C@@H](N3CC(NC(=O)CNC(=O)c4cccc(C(F)(F)F)c4)C3)CC2)cc1
2. O=C(CNC(=O)c1ccc(C(F)(F)F)cc1)NC1CN([C@H]2CC[C@H](c3ccc4c(c3)OCO4)CC2)C1

output:
1. 7.70
2. 5.92

input: Query for C-C chemokine receptor type 2 (Homo sapiens): what pIC50 does the record show for "O=C(CNC(=O)c1ccccc1)NC1CN([C@H]2CC[C@H](c3ccc4c(c3)OCO4)CC2)C1" ?
output: 6.41

----------
What IC50 was measured for each of the following?
Molecular target: C-C chemokine receptor type 2 (Homo sapiens)
Experiment: Displacement of [125I]-MCP1 from CCR2 in human THP1 cells after 2 hrs by microplate scintillation and luminescence counting

input: # IC50 lookup, item "COc1cc([C@H]2CC[C@H](N3CC(NC(=O)CNC(=O)c4cccc(C(F)(F)F)c4)C3)CC2)ccn1"
output: 0.025 µM

input: Try this compound next: "N[C@]1(c2ccccc2)CC[C@H](N2CC(NC(=O)CNC(=O)c3cccc(C(F)(F)F)c3)C2)CC1"
output: 0.24 µM

input: Also "O=C(CNC(=O)c1cccc(C(F)(F)F)c1)NC1CN([C@H]2CC[C@H](c3ccc(O)cn3)CC2)C1" , if possible.
output: 0.013 µM

Below is a list of compounds. For each, state its recorded IC50.
1. O=C(CNC(=O)c1cccc(C(F)(F)F)c1)NC1CN([C@H]2CC[C@](CO)(c3ccccc3)CC2)C1
2. Nc1ccc([C@H]2CC[C@H](N3CC(NC(=O)CNC(=O)c4cccc(C(F)(F)F)c4)C3)CC2)nc1
3. O=C(CNC(=O)c1cccc(C(F)(F)F)c1)NC1CN(C2CC=C(c3ccc4c(c3)OCO4)CC2)C1 (stereo not given)
4. O=C(CNC(=O)c1cccc(C(F)(F)F)c1)NC1CN([C@H]2CC[C@H](c3ccccc3)CC2)C1
5. O=C(CNC(=O)c1cccc(C(F)(F)F)c1)NC1CN([C@H]2CC[C@H](c3ccc(N4CCCC4)cc3)CC2)C1
6. COc1ccc([C@H]2CC[C@H](N3CC(NC(=O)CNC(=O)c4cccc(C(F)(F)F)c4)C3)CC2)cc1
7. O=C(CNC(=O)c1cccc(C(F)(F)F)c1)NC1CN([C@H]2CC[C@](O)(c3ccc4c(c3)OCO4)CC2)C1

output:
> 25 µM
0.085 µM
1 µM
0.035 µM
0.061 µM
0.01 µM
0.022 µM

Quick one: give me IC50 for each item below, same order please.
1. O=C(CNC(=O)c1cccc(C(F)(F)F)c1)NC1CN([C@H]2CC[C@H](c3ccc(C(=O)O)cc3)CC2)C1
2. O=C(CNC(=O)c1cccc(C(F)(F)F)c1)NC1CN([C@H]2CC[C@H](c3ccc4[nH]cnc4c3)CC2)C1
3. O=C(CNC(=O)c1cccc(C(F)(F)F)c1)NC1CN(C2CCN(c3ccc4c(c3)OCO4)CC2)C1
4. O=C(CNC(=O)c1cccc(C(F)(F)F)c1)NC1CN([C@H]2CC[C@H](c3cccnc3)CC2)C1
5. O=C(CNC(=O)c1cccc(C(F)(F)F)c1)NC1CN([C@H]2CC[C@H](c3ccncc3O)CC2)C1

output:
["0.07 µM", "0.027 µM", "> 25 µM", "0.045 µM", "0.052 µM"]

Recorded values, source ChEMBL document CHEMBL1828623.
